Target: Protein deacetylase HDAC6 (Homo sapiens)
Sequence (whole entry): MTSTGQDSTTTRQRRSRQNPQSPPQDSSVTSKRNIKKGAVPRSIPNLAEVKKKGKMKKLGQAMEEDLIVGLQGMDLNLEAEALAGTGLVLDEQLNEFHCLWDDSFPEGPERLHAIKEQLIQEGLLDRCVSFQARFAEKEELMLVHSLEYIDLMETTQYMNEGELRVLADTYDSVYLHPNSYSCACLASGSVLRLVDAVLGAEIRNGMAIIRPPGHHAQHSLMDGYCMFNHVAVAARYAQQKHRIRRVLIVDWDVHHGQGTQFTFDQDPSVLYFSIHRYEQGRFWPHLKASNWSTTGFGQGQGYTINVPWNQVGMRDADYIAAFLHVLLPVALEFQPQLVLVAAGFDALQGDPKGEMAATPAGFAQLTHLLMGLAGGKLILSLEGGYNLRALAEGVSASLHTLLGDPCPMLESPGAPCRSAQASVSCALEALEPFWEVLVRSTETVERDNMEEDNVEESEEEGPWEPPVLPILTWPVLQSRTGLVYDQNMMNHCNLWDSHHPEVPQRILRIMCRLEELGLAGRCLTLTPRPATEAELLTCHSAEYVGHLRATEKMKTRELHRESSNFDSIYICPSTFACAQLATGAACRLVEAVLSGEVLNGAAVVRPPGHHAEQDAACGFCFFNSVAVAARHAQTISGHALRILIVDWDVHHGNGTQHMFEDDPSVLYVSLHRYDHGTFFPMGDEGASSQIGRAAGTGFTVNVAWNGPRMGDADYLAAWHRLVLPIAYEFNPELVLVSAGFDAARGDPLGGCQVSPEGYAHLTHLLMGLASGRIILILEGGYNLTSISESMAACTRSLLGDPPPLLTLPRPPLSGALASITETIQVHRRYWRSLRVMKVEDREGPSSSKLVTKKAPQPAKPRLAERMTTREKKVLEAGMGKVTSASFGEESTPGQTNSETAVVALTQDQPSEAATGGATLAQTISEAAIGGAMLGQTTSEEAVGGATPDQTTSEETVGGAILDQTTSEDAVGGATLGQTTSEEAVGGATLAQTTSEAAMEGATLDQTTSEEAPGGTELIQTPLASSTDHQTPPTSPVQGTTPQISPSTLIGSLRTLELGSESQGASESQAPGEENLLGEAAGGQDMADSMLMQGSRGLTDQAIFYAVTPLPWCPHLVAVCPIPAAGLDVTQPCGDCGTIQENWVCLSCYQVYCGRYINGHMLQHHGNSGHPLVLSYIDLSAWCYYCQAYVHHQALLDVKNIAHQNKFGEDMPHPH
Conditions: at 10 µM
Hit rate of the full screen: of about 5,600 compounds, about 390 (7%) showed an effect of 50% or more. The sample holds strong results, similar compounds and a random draw of the others, so the mix is not that of the screen.
// label = t if inhibition is not less than 40%, otherwise f

Completed entries (count: 4):
INSERT INTO assay_data (molecule, category) VALUES
  ('Cc1ccc(NC(=O)c2ccc(CN3CCN(C)CC3)cc2)cc1Nc1nccc(-c2cccnc2)n1', 'f'),
  ('COC(=O)CC1CC(c2ccc(O)cc2)=NO1 (stereo unspecified)', 't'),
  ('Cc1cc(C)c2c(c1)[C@@H](N(Cc1cc(C(F)(F)F)cc(C(F)(F)F)c1)c1nnn(C)n1)CCCN2C[C@H]1CC[C@H](C(=O)O)CC1', 'f'),
  ('Nc1nc2cc(-c3ccc4ncc(C(=O)N5CCOCC5)n4c3)ccc2o1', 'f');

Would you say CN1CCCN=C1/C=C/c1cccc(O)c1 shows inhibition at minimum 40%? t

Would you say Nc1nc(Nc2ccc(S(N)(=O)=O)cc2)nn1C(=O)c1c(F)cccc1F shows inhibition at minimum 40%? f

Would you say O=C(c1ccccc1)c1ccc2n1CCC2C(=O)O (stereo unspecified) shows inhibition at minimum 40%? t

Would you say O=[N+]([O-])c1ccc2c(c1)S(=O)(=O)C=C2 shows inhibition at minimum 40%? f

Would you say C[C@@H]([C@H](C)O)[C@H](N)C(=O)O shows inhibition at minimum 40%? f

Would you say Cc1ccccc1/N=N/c1ccc(NC(=O)c2ccnn2C)c(C)c1 shows inhibition at minimum 40%? f

Would you say CN1CCCN=C1/C=C/c1cccs1 shows inhibition at minimum 40%? t

The measurements presented in this section are drawn from ChEMBL document CHEMBL4808148.
